Study target: Voltage-gated inwardly rectifying potassium channel KCNH2 (Homo sapiens) (UniProt Q12809)
Sequence (Q12809 whole entry, looked up): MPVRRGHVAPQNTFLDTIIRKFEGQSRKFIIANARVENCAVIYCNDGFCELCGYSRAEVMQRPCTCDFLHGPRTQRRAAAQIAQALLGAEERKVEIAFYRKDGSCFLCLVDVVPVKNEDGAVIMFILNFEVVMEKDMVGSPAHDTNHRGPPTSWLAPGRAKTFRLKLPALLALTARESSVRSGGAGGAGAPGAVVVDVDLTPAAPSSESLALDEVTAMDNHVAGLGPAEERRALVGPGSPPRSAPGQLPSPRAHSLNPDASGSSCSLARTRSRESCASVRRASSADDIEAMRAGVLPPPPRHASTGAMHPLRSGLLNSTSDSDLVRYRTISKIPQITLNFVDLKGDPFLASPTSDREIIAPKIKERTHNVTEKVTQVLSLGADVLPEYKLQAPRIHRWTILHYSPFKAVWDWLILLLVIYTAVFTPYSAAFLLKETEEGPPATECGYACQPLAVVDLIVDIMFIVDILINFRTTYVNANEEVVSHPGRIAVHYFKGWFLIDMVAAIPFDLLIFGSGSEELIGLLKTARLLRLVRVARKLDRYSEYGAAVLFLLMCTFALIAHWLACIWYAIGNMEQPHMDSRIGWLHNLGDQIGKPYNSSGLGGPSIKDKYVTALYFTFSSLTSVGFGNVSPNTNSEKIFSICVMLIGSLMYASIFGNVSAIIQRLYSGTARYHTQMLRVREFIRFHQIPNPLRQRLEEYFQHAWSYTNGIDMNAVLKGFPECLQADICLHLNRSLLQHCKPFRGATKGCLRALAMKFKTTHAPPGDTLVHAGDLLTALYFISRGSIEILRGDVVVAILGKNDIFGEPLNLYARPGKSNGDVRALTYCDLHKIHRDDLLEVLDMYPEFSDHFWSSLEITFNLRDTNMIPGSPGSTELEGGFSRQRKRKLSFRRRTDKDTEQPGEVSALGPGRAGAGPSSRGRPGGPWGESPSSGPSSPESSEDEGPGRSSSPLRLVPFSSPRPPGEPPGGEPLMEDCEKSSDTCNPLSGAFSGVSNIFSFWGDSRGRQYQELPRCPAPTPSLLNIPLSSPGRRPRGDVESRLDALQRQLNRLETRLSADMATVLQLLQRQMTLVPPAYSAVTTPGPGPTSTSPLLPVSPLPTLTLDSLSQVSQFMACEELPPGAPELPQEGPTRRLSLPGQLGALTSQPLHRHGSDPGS
Run description: qHTS for Inhibitors of KCHN2 3.1: Wildtype qHTS; further: on the % scale 0 is the no-effect control and ±100 the full control effect
Condition context: U2OS, BacMam KCNH2, thallium flux FluxOr; at 1.84 µM; active compounds read low
Hit rate of the full screen: of about 340,000 compounds, about 1,300 (0.38%) were called active. The list comes from a sample in which actives are over-represented; it also holds close analogues and randomly drawn compounds.
Property label: activity change

1) COc1ccc(NC(=O)CN(C)C(=O)c2cc(C)oc2C)cc1 ... -15.3% (inactive)
2) COC(=O)c1ccc(OC(=O)c2cnccn2)cc1 ... -0.0992% (inactive)
3) COc1ccc(NC(=O)N2CCCC2C(=O)NCc2ccccc2Cl)cc1 (centres undefined) ... -3.26% (inactive)
4) CC1(C)CC(=O)C=C(c2ccccc2CO)C1=O ... 2.31% (inactive)
5) NC1=CC(=O)C(=O)c2cccnc21 ... -14.1% (inactive)
6) CN(C)C(CNC(=O)c1cc(Br)c(Br)s1)c1ccco1 (centres undefined) ... 6.08% (inactive)
7) COc1ccc(C(=O)NC2CC2)cc1OC1CCN(C/C=C/c2ccccc2)CC1 ... -83.5% (active)
8) CCc1ccc(NC(=O)CN2CCC(C(=O)c3ccc(OC)cc3)CC2)cc1 ... 1.48% (inactive)
9) CSc1ncc(C(=O)Nc2ccc(C)cc2C)c(C)n1 ... -213% (active)
10) COc1cccc(NC(=O)CN2CCN(CC(=O)Nc3ccccc3Cl)CC2)c1 ... 19.7% (inactive)
11) CO/N=C/c1ccc(N2CCN(C(=O)c3cccc(Cl)c3)CC2)c([N+](=O)[O-])c1 ... -11.9% (inactive)
12) O=C(CSc1nnc(-c2cnccn2)n1Cc1ccco1)c1ccc(Cl)c(Cl)c1 ... -187% (active)
13) COc1ccc(C(=O)NC2CC2)cc1OC1CCN(Cc2ccc(SC)cc2)CC1 ... -117% (active)
14) O=C(COC(=O)Cc1ccc(Cl)cc1Cl)NCc1ccco1 ... 5.01% (inactive)
15) CCCCN1C(=O)C(CC(=O)NCc2cccs2)CC(C(=O)N2CCOCC2)=C1C (centres undefined) ... -2.88% (inactive)
16) Cc1nc2ccccc2n1CC(O)c1ccccc1 (centres undefined) ... -1.47% (inactive)
17) CN(C)C(CNC(=O)c1cccc(S(=O)(=O)N2CCc3ccccc3C2)c1)c1ccccc1 (centres undefined) ... 19.3% (inactive)
18) COc1ccc(C[C@H]2CN3C(=NC[C@H]3C)N2CCNC(=O)CCC2CCCCC2)cc1 ... -97.2% (active)
19) CCCCN1C(N)=NC[C@@H]1Cc1ccccc1 ... -3.39% (inactive)
20) Cc1cc2ccccn2c1C(=O)c1cccc(F)c1 ... -0.532% (inactive)
21) CCOC(=O)C1CCN(C(=O)Nc2cccc(OC)c2)CC1 ... -8.37% (inactive)
22) c1ccc(Cn2nnc3c(NCC4CC4)ncnc32)cc1 ... -10.7% (inactive)
23) CCOc1ccc(NC(=O)N2CCN(CC)CC2)cc1 ... 0.628% (inactive)
24) O=C(Oc1ccc(-c2nc(-c3ccccn3)no2)cc1)c1ccccc1 ... -11.6% (inactive)
25) O=C(CSc1nnc(-c2cccnc2)n1Cc1ccco1)c1ccc(Cl)c(Cl)c1 ... 1.21% (inactive)
26) C#CCN(C[C@@H]1[C@@H](OC(=O)NC2CC2)[C@@H](OC(=O)NC2CC2)Cn2c(=O)ccc(=O)n21)S(=O)(=O)c1ccc(C)cc1 ... 2.34% (inactive)
27) O=Nc1c(O)cc(O)c2ccccc12 ... -0.133% (inactive)
28) CCOc1ccc(NC(=O)CN2CCN(CC(=O)Nc3ccc(OC)cc3)CC2)cc1 ... -141% (active)
29) O=Cc1cn(CCOc2ccc(F)cc2)c2ccccc12 ... -0.818% (inactive)
30) CCOc1ccc(C2c3[nH]c4ccccc4c3CCN2Cc2cn(CC)nc2C)cc1 (centres undefined) ... 23.4% (inactive)
31) CN(C)C1=NC[C@H](Cc2ccccc2)N1CCc1ccc(F)cc1 ... -88.4% (active)
32) CCOC(=O)c1ccc2c(c1)nc(C)n2CC ... 12.4% (inactive)
33) COc1ccc(OC)c(C(=O)NC2CCCc3c2cnn3-c2cc(C)cc(C)c2)c1 (centres undefined) ... -0.114% (inactive)
34) Cc1ccc(NC(=O)CSc2nnc(-c3cnccn3)n2Cc2ccco2)cc1C ... 8.19% (inactive)
35) CCOc1ccccc1NC(=S)N1CCN(c2cccc(C)c2C)CC1 ... -2.86% (inactive)
36) C[C@H](CO)N1C[C@H](C)[C@@H](CN(C)S(=O)(=O)c2ccc(F)cc2)OCc2cnnn2CCCC1=O ... -1.39% (inactive)
37) O=C(COC(=O)c1ccc(F)cc1)Nc1ccc2c(c1)OCO2 ... -0.371% (inactive)
38) C=CCn1nc(C(=O)OCC)cc1-c1sc(NC(=O)c2ccccc2)nc1C ... 41.9% (inactive)
39) COc1ccc(C(=O)NCCn2nc(C)cc2C)cc1OC1CCN(C(C)=O)CC1 ... 3.09% (inactive)
40) Cc1ccc(S(=O)(=O)NN=C2CC(C)(C)CC(=O)C2(C)C)cc1 ... -3.73% (inactive)
41) C[C@H]1CN([C@@H](C)CO)S(=O)(=O)c2ccc(Br)cc2O[C@H]1CN(C)C(=O)c1cnccn1 ... 2.27% (inactive)
42) Cc1ccc(S(=O)(=O)/N=C2\C=C(NS(=O)(=O)c3ccc(C)cc3)C(=O)c3ccccc32)cc1 ... 1.35% (inactive)
43) CCC(Oc1ccccc1)C(=O)OCC(=O)Nc1c(C)nn(-c2ccccc2)c1C (centres undefined) ... 0.17% (inactive)
44) O=C(c1ccc(Cl)c([N+](=O)[O-])c1)N1CCN(c2ccccc2)CC1 ... 9.59% (inactive)
